Assay: Freeze-thaw cycles of paint samples, viscosity by Krebs Stormer Viscometer
Format: physicochemical
Conditions: additive 2 wt %
Description: Preparation of paint formulations containing compounds of the invention: The paint formulations are prepared using F/T agent 1 and 2 as shown by structures below. The octanol water partition coefficients are calculated for these compounds using the method of Moriguchi et al., Chem. Pharm. Bull. 40(1), 127-130 (1992). The calculated octanol-water partition coefficients for F/T-1 and F/T-2 are −2.59, and −3.99, respectively. […] The viscosity is measured in Krebs unit (KU). […]
MEASURED PROPERTY: Viscosity after Freeze-Thaw cycles (KU), 5th cycle
Reply with just the number (in KU).

Study these solved cases before continuing.
Which measured Viscosity after Freeze-Thaw cycles (KU), 5th cycle value corresponds to OCCOCCO [Diethylene Glycol, diethylene glycol, reference compound] ? 98

// query Viscosity after Freeze-Thaw cycles (KU), 5th cycle value for entry CC(O)CO (stereo not shown) [Propylene Glycol, propylene glycol, reference compound] 98.2

Quick one: Viscosity after Freeze-Thaw cycles (KU), 5th cycle for OCC(O)CN(CCN(CC(O)CO)CC(O)CO)CCN(CC(O)CO)CC(O)CO (stereo not shown) [F/T Agent 2] ? 116.3

In the following, a different compound is considered.
Reported Viscosity after Freeze-Thaw cycles (KU), 5th cycle for OCC(O)CNCCN(CCNCC(O)CO)CC(O)CO (stereo not shown) [F/T Agent 1] : what is it? 109.5

====

Each entry below lists one item and its recorded Viscosity after Freeze-Thaw cycles (KU), 3rd cycle value.
Assay: Freeze-thaw cycles of paint samples, viscosity by Krebs Stormer Viscometer
Format: physicochemical
Details: additive 2 wt %
Numeric answer only, unit KU assumed.

Please review the entries below; each comes with its answer.
Please look up its Viscosity after Freeze-Thaw cycles (KU), 3rd cycle: OCCOCCO [Diethylene Glycol, diethylene glycol, reference compound] 106.9

Need Viscosity after Freeze-Thaw cycles (KU), 3rd cycle of OCC(O)CNCCN(CCNCC(O)CO)CC(O)CO (stereo not shown) [F/T Agent 1] , thanks. 112.7

I would be grateful if you could share the reported Viscosity after Freeze-Thaw cycles (KU), 3rd cycle for OCC(O)CN(CCN(CC(O)CO)CC(O)CO)CCN(CC(O)CO)CC(O)CO (stereo not shown) [F/T Agent 2] . 114

Now look at this entry.
Which Viscosity after Freeze-Thaw cycles (KU), 3rd cycle value belongs to CC(O)CO (stereo not shown) [Propylene Glycol, propylene glycol, reference compound] ? 115.1

====

Assay: Freeze-thaw cycles of paint samples, viscosity by Krebs Stormer Viscometer
Format: physicochemical
Conditions: additive 2 wt % post-add in paint of Table 8, before freeze-thaw
Documented Initial Viscosity (KU) across a set of compounds
Write down the numeric answer in KU and omit the unit.

Entry CC(O)CO (stereo not shown) [Propylene Glycol, propylene glycol, reference compound] has what Initial Viscosity (KU)? 89.8

Fill blank: measured Initial Viscosity (KU) of the compound OCC(O)CNCCN(CCNCC(O)CO)CC(O)CO (stereo not shown) is ____. 89.5

Would you mind telling me what Initial Viscosity (KU) value was observed for OCC(O)CN(CCN(CC(O)CO)CC(O)CO)CCN(CC(O)CO)CC(O)CO (stereo not shown) ? 88.2

Entry under review: OCCOCCO [Diethylene Glycol, diethylene glycol, reference compound] . Reported Initial Viscosity (KU)? 91.0

====

Assay: Freeze-thaw cycles of paint samples, viscosity by Krebs Stormer Viscometer
Type: physicochemical
Settings: additive 2 wt %
Listed here are compounds together with their documented Viscosity after Freeze-Thaw cycles (KU), 4th cycle.
Answer format: numeric, KU implied, no suffix.

Check out these entries, answers already filled in.
# input compound: OCC(O)CNCCN(CCNCC(O)CO)CC(O)CO (stereo not shown) ; wanted: its Viscosity after Freeze-Thaw cycles (KU), 4th cycle 111.8

# lookup: Viscosity after Freeze-Thaw cycles (KU), 4th cycle of OCCOCCO [Diethylene Glycol, diethylene glycol, reference compound] 100.6

// Viscosity after Freeze-Thaw cycles (KU), 4th cycle lookup, key: CC(O)CO (stereo not shown) [Propylene Glycol, propylene glycol, reference compound] 99.4

More entries:
Please give the measured Viscosity after Freeze-Thaw cycles (KU), 4th cycle for this compound: OCC(O)CN(CCN(CC(O)CO)CC(O)CO)CCN(CC(O)CO)CC(O)CO (stereo not shown) 121.7

====

Experiment: Freeze-thaw cycles of paint samples, viscosity by Krebs Stormer Viscometer
Format: physicochemical
Conditions: additive 2 wt %
Reported Viscosity after Freeze-Thaw cycles (KU), 2nd cycle is given for each of the following compounds.
Please state the number and follow it with the unit.

Data request, read-out Viscosity after Freeze-Thaw cycles (KU), 2nd cycle, for OCC(O)CN(CCN(CC(O)CO)CC(O)CO)CCN(CC(O)CO)CC(O)CO (stereo not shown) 113.1 KU

Others:
Look up Viscosity after Freeze-Thaw cycles (KU), 2nd cycle for this compound: OCC(O)CNCCN(CCNCC(O)CO)CC(O)CO (stereo not shown) 111.1 KU

Sample OCCOCCO [Diethylene Glycol, diethylene glycol, reference compound] — what was its Viscosity after Freeze-Thaw cycles (KU), 2nd cycle? 105.1 KU

Fill blank: measured Viscosity after Freeze-Thaw cycles (KU), 2nd cycle of the compound CC(O)CO (stereo not shown) [Propylene Glycol, propylene glycol, reference compound] is ____. 103.2 KU

====

Experiment: Freeze-thaw cycles of paint samples, viscosity by Krebs Stormer Viscometer
Format: physicochemical
Conditions: additive 2 wt %; cycle = −18° C. 17 hours, 25° C. 7 hours
MEASURED PROPERTY: Viscosity after Freeze-Thaw cycles (KU), 1st cycle
Hi! Could you send only the number? It should be in KU, unit omitted.

Name the reported Viscosity after Freeze-Thaw cycles (KU), 1st cycle value associated with the molecule OCCOCCO [Diethylene Glycol, diethylene glycol, reference compound] 101.1

Request the reported Viscosity after Freeze-Thaw cycles (KU), 1st cycle associated with OCC(O)CN(CCN(CC(O)CO)CC(O)CO)CCN(CC(O)CO)CC(O)CO (stereo not shown) 110.4

Returns the measured Viscosity after Freeze-Thaw cycles (KU), 1st cycle for the input molecule. Input: OCC(O)CNCCN(CCNCC(O)CO)CC(O)CO (stereo not shown) 108

Now turn to the next molecule.
Form field: reported Viscosity after Freeze-Thaw cycles (KU), 1st cycle of CC(O)CO (stereo not shown) [Propylene Glycol, propylene glycol, reference compound] 101.3
